molecular target: T1, recombinant human heat shock cognate 71 kDa protein (Hsc70) (human, UniProt P11142 1-646, limits assumed); test: SEC of peptide-Hsc70 mixture; peptide:Hsc70 molar ratio 0.25:1
T1 construct: also called rhHsc70; human Hsc70
T1 sequence (P11142 whole entry): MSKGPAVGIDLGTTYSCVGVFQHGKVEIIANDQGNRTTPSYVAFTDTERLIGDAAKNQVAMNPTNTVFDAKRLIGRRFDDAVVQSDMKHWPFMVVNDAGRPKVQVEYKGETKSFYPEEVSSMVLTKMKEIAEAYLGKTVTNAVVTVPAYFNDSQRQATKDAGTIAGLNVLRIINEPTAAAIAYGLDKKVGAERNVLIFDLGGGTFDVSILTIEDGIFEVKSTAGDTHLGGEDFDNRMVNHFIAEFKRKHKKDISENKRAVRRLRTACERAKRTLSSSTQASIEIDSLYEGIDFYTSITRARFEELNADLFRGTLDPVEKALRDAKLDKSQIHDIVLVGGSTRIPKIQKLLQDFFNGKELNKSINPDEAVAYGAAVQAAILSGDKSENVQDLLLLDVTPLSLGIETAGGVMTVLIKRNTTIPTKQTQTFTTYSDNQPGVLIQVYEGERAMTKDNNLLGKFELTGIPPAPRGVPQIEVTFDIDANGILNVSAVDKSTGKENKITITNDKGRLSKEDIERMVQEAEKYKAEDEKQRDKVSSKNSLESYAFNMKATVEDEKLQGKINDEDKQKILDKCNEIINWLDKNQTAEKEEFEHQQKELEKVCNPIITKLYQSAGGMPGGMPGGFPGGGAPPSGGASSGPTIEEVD
Reported Percent complexation with Hsc70 values are given for each entry in this list.
Param answer (str): number followed by unit.

Example cases with answers are listed next.
Reported Percent complexation with Hsc70, binder FFRKNLLRWTG (Synthetic peptide) [PEP004] : ____
15.4%

Reported Percent complexation with Hsc70, binder FFRKNLLRLTW (Synthetic peptide) [PEP155] : ____
22.5%

Reported Percent complexation with Hsc70, binder FFRKNFLRLTF (Synthetic peptide) [PEP027] : ____
19.1%

Okay, next one:
Reported Percent complexation with Hsc70, binder FFRKQWLRLTW (Synthetic peptide) [PEP014] : ____
29.3%
